Origin of the recorded values: ChEMBL document CHEMBL2321812

Reported IC50 by item:
testedOn: Tankyrase 1/2 (Homo sapiens, UniProt Q9H2K2+O95271)
protocolNotes: Inhibition of TNKS1/2 in HEK293 cells assessed as inhibition of Wnt/beta-catenin pathway after 24 hrs by luciferase reporter gene assay
Type: cell-based
Numbers only here, please. The scale is µM.

Query block: Tell me the measured IC50 of Cc1nnc(SCc2nnc(-c3ccc(Cl)cc3)o2)n1-c1ccccc1Cl , please.
Result block: 4.5

Others:
Query block: Tell me the measured IC50 of COc1ccc(-n2c(SCc3nc(-c4ccc(C)cc4)no3)nnc2-c2ccncc2)cc1 , please.
Result block: 1.01

Query block: Tell me the measured IC50 of NCCCOCCCOc1cccc(-c2noc(CSc3nnc(-c4ccncc4)n3-c3ccccc3Cl)n2)c1 , please.
Result block: 3.92
